System: BDF1 mice, B16 melanoma ip, median survival T/C
Experiment: NCI In Vivo Anticancer Drug Screen. Data for tumor model B16 Melanoma (intraperitoneal) in B6D2F1 (BDF1) mice
Settings: endpoint: median survival time; dose: 25.0 mg/kg/injection; schedule: Q04DX003 (ip); vehicle: saline
Inconclusive results and toxic doses are left out. How the source made its calls: active means survival T/C of 150% or more; inactive means T/C below 125% in these data.
Your answer must be one of the following: active, inactive

# example entries with known answers
OC1CC2CCC(C1)N2CCCN1c2ccccc2Sc2ccc(Cl)cc21 (centres undefined) :: inactive
CN(C)CCCc1c2ccccc2nc2ccc(Cl)cc12 :: inactive
OC(CC(O)(C(F)(F)F)C(F)(F)F)CC(O)(C(F)(F)F)C(F)(F)F :: inactive

Pending compound:
Ask: Dear colleague, could you share the recorded outcome for `CCC(C(=O)O)C(=O)O.[NH2-].[NH2-].[Pt+2]` when you have a moment?
Reply: active
